# system.under.test: Alpha-bungarotoxin (Bungarus multicinctus)
# Sequence (P60615 whole entry): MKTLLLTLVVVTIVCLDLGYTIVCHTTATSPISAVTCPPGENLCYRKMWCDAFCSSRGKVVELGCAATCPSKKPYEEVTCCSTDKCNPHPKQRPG
pKi: −log10 of the molar value.

compound	relation	pKi
C[N+](C)(C)CCOC(N)=O	=	5.03
C[N+](C)(C)C	=	5.62
CC[N+](CC)(CC)CC	<	5.00
O=c1cccc2n1C[C@H]1CNC[C@H]2C1	=	5.74
COc1cc2c3cc1Oc1cc(ccc1O)C[C@H]1c4c(cc(OC)c(O)c4Oc4ccc(cc4)C[C@@H]3N(C)CC2)CC[N+]1(C)C [CAS_57-94-3]	=	5.25
C[N+]1(C)CCN(c2ccccc2)CC1 [DMPP]	=	6.17
